Target chain: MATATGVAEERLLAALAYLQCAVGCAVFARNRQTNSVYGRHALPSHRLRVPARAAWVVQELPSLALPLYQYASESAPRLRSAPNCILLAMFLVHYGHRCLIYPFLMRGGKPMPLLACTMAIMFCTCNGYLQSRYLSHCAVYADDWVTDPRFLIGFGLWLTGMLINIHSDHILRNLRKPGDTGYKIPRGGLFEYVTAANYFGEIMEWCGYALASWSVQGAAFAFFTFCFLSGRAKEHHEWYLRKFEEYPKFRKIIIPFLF
// reported pIC50 for each item listed
Note: pIC50 values are expressed as the negative base-10 logarithm of concentration in M.

• CCN1C(=O)CC[C@]2(C)C3CC[C@]4(C)C(C(C)CCCC(C)C)CCC4C3[C@@H](C)CC12 (stereo not given in full) = 8.48
• CC[C@H]1CC2N(C)C(=O)CC[C@]2(C)C2CC[C@]3(C)C(C(C)CCCC(C)C)CCC3C21 (stereo not given in full) = 8.24
• CC(C)CCCC(C)[C@H]1CCC2C3C(CC[C@@]21C)[C@@]1(C)CCC(=O)N(C)C1C[C@@H]3C (stereo not given in full) = 9.05
• CC(C)CCCC(C)C1CCC2C3CC=C4N(C)C(=O)CC[C@]4(C)C3CC[C@]12C (stereo not given in full) = 8.37

API: the following record is the query input.
Q) I have this compound here, CC(C)CCCC(C)C1CCC2C3C(CC[C@]12C)[C@@]1(C)C=CC(=O)N(C)C1C[C@@H]3C (stereo not given in full) , and I need its recorded pIC50.
A) 8.70
